IC50 values, listed per item
target: ACC1 (Homo sapiens, UniProt Q13085); assay: In vitro ACC1 inhibition assay (ADP-Glo); type: biochemical; conditions: read-out: ACC1

query_smiles	target_system	IC50
CCOc1ccccc1CCn1c(=O)n(C(C)(C)C(N)=O)c(=O)c2c(C)c(-c3ncco3)sc21	ACC1 (Homo sapiens, UniProt Q13085)	< 1000 nM
CCOC(=O)c1sc2c(c1C)c(=O)n(CCC(N)=O)c(=O)n2CCc1ccccc1	ACC1 (Homo sapiens, UniProt Q13085)	< 5000 nM
CCc1ccccc1[C@H](Cn1c(=O)n(C(C)(C)C(=O)O)c(=O)c2c(C)c(-c3ncco3)sc21)O[C@H]1CC[C@H](O)CC1	ACC1 (Homo sapiens, UniProt Q13085)	< 100 nM
CCO[C@@H](Cn1c(=O)n(C(C)(C)C(=O)O)c(=O)c2c(C)c(-c3ncco3)sc21)c1ccccc1OC	ACC1 (Homo sapiens, UniProt Q13085)	< 100 nM
